Tgt: Pan-species-specific antigen Plasmodium Lactate DeHydrogenase (Pan-PLDH) protein
Method: indirect ELISA at four coating concentrations, KD calculated from half-maximal OD
Readout label: Kd
// return the numeric value with its unit appended

Ask | So what does the record say about Kd for Mutation 1-35 (antibody, mouse IgG2b, kappa, V domains shown) VH: QVQLQQPGAELVRPGASVKLSCKASGSSFTNYWMNWVKQRPGQGLEWIGMIHPSESETRVNQKFKDKATLTVDKSSSTAYMQLSSLTAEDSAVYYCARSGEFYTTYFDYWGQGTTLTVSS VL: DIQLTQSPASLSASVGETVTITCRGSGNLHNYLAWYQQKQGKSPQLLVYNARTIADGVPSRFSGSGSGTQYSLKINSLQPEDFGSYYCQYFWSTYTFGGGTKLEIKR ?
Reply | 0.424 nM

Ask | So what does the record say about Kd for Mutation 1-22 (antibody, mouse IgG2b, kappa, V domains shown) VH: QVQLQQPGAELVRPGASVKLSCKASGSSFTNYWMNWVKQRPGQGLEWIGMIHPSESETRLNQKFKDKATLTVDKSSSTAYMQLSSLTAEDSAVYYCARSGEFYTYYFDYWGQGTTLTVSS VL: DIQLTQSPASLSASVGETVTITCRGTGNLHNYLAWYQQKQGKSPQLLVYNARTLADGVPSRFSGSGSGTQYSLKINSLQPEDFGSYYCQTFWSTYTFGGGTKLEIKR ?
Reply | 0.378 nM

Ask | So what does the record say about Kd for Mutation 1-5 (antibody, mouse IgG2b, kappa, V domains shown) VH: QVQLQQPGAELVRPGASVKLSCKASGSSFTNYWMNWVKQRPGQGLEWIGMIHPSDSETRVNQKFKDKATLTVDKSSSTAYMQLSSLTAEDSAVYYCAKSGEFYTTYFDYWGQGTTLTVSS VL: DIQLTQSPASLSASVGETVTITCRGTGNIHNYLAWYQQKQGKSPQLLVYNAKTLADGVPSRFSGSGSGTQYSLKINSLQPEDFGSYYCQSFWSTYTFGGGTKLEIKR ?
Reply | 0.532 nM
